Target: LXRβ LBD (GST) (Homo sapiens)
Construct: 5 nM LXRα LBD (GST); 10 nM LXRβ LBD (GST); purchased ThermoFisher Scientific PV4658
Sequence (P55055 222-460 limits assumed): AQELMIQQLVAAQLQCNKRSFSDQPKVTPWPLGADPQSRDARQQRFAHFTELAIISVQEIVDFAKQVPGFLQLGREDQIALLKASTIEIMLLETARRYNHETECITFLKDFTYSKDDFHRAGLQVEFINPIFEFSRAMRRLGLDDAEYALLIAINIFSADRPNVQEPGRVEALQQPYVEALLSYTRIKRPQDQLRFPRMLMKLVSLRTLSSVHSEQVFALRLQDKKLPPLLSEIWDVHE
Assay: Time-resolved LXR FRET assay (LanthaScreen TR-FRET LXRβ assay kit)
Assay type: biochemical
Settings: supplement list of compounds, (LXRβ); unit inferred; read-out: FRET activity b
property_name: pEC50
# pEC50: negative log10 of molar concentration; output just the value

# annotated cases, reported pEC50 shown
CN1CCN(c2ccc(NC3=C(c4ccccc4)C(=O)N(Cc4ccccc4)C3=O)cc2)CC1 | 6.18
O=C(c1ccc(NC2=C(c3ccccc3)C(=O)N(Cc3ccccc3)C2=O)cc1)N1CCCCC1 | 6.65
CN1CCC(Nc2ccc(NC3=C(c4ccccc4)C(=O)N(Cc4ccccc4)C3=O)cc2)CC1 | 6.82

Qu. Param item = "O=C1CCN(c2ccc(NC3=C(c4ccccc4)C(=O)N(Cc4ccccc4)C3=O)cc2)CC1" ; retrieve measured pEC50.
Ans. 6.89

----------
biological target: LXRα LBD (GST) (Homo sapiens); construct: 5 nM LXRα LBD (GST); 10 nM LXRβ LBD (GST); purchased ThermoFisher Scientific PV4655; experiment: Time-resolved LXR FRET assay (LanthaScreen TR-FRET LXRα Coactivator Assay Kit); type: biochemical; conditions: statement made for both isoforms
property_name: TR-FRET activity on LXRα, in words

O=C1NC(=O)C(c2ccccc2)=C1Nc1ccc(N2CCCCC2)cc1 [Compound 52] | no activity
COc1ccc(CNC2=C(c3ccccc3)C(=O)N(Cc3ccccc3)C2=O)cc1 [Compound 28] | no activity
COc1ccc(NC2=C(c3ccccc3)C(=O)NC2=O)cc1 [Compound 25] | no activity

----------
target: LXRβ LBD (GST) (Homo sapiens); construct: 5 nM LXRα LBD (GST); 10 nM LXRβ LBD (GST); purchased ThermoFisher Scientific PV4658; test: Time-resolved LXR FRET assay (LanthaScreen TR-FRET LXRβ assay kit); type: biochemical; conditions: 10 nM LXRβ LBD (GST), read after 6 h; R^2 of fit given; read-out: TR-FRET activity (EC50) LXRβ
The entries below come with measured pEC50 values attached.
# pEC50: negative log10 of molar concentration; output just the value

# annotated cases, reported pEC50 shown
O=C1C(Nc2ccc(F)cc2)=C(c2ccccc2)C(=O)N1Cc1ccccc1 | 6.26
COc1ccc(CN2C(=O)C(Nc3ccc(OC)cc3)=C(c3ccccc3)C2=O)cc1 | 6.23
CN(C)c1ccc(NC2=C(c3ccccc3)C(=O)N(Cc3ccccc3)C2=O)cc1 | 7.04
O=C1C(Nc2ccc(O)cc2)=C(c2ccccc2)C(=O)N1Cc1ccccc1 | 6.69
O=C1Cc2cc(NC3=C(c4ccccc4)C(=O)N(Cc4ccccc4)C3=O)ccc2N1 | 7.08

Qu. Report pEC50 for "COc1ccc(NC2=C(c3ccccc3)C(=O)N(Cc3ccncc3)C2=O)cc1" tested on LXRβ LBD (GST) (Homo sapiens).
Ans. 6.64

Qu. Report pEC50 for "COc1ccc(NC2=C(c3ccccc3)C(=O)N(Cc3ccc(C)cc3)C2=O)cc1" tested on LXRβ LBD (GST) (Homo sapiens).
Ans. 6.48

Qu. Report pEC50 for "Cc1ccc(NC2=C(c3ccccc3)C(=O)N(Cc3ccccc3)C2=O)cc1" tested on LXRβ LBD (GST) (Homo sapiens).
Ans. 6.21

----------
Target: LXRβ LBD (GST) (Homo sapiens)
Construct: 5 nM LXRα LBD (GST); 10 nM LXRβ LBD (GST); purchased ThermoFisher Scientific PV4658
Sequence (P55055 222-460 limits assumed): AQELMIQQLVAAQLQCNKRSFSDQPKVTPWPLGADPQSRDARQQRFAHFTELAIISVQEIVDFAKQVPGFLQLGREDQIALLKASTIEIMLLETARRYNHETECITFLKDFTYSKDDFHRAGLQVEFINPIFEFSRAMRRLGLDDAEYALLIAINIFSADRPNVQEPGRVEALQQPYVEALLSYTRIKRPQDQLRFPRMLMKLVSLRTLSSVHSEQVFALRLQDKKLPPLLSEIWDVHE
Assay: Time-resolved LXR FRET assay (LanthaScreen TR-FRET LXRβ assay kit)
Format: biochemical
Details: statement made for both isoforms
property_name: TR-FRET activity on LXRβ, in words

COc1ccc(CNC2=C(c3ccccc3)C(=O)N(Cc3ccccc3)C2=O)cc1 | no activity
O=C1NC(=O)C(c2ccccc2)=C1Nc1ccc(N2CCCCC2)cc1 | no activity
COc1ccc(NC2=C(c3ccccc3)C(=O)NC2=O)cc1 | no activity

----------
biological target: LXRβ (Homo sapiens, UniProt P55055); construct: To measure the activity of the remaining isoform under treatment; endogenous in cells; assay: LXRβ-specific LXRE-GFP reporter assay in Hep3B cells (NR1H3 knockout); settings: 48h of treatment, GFP by FACS
The entries below come with measured pEC50 values attached.
# pEC50: negative log10 of molar concentration; output just the value

NC1CCN(c2ccc(NC3=C(c4ccccc4)C(=O)N(Cc4ccccc4)C3=O)cc2)CC1 [Compound 46] | 5.90
O=C1C(Nc2ccc(N3CCCCC3)cc2)=C(c2ccccc2)C(=O)N1Cc1ccccc1 [Compound 40] | 6.20
COc1ccc(NC2=C(c3ccccc3)C(=O)N(Cc3ccccc3)C2=O)cc1 [GSK3987 (3), reference compound] | 6.61
O=C(O)Cc1cccc(OCCCN(Cc2cccc(C(F)(F)F)c2Cl)CC(c2ccccc2)c2ccccc2)c1 [GW3965 (2), reference compound] | 7.40

Qu. Param item = CC(C)(C)N1C(=O)C(Nc2ccc(N3CCCCC3)cc2)=C(c2ccccc2)C1=O [Compound 51] ; retrieve measured pEC50.
Ans. 6.95

----------
Molecular target: LXRα (Homo sapiens, UniProt Q13133)
Construct: To measure the activity of the remaining isoform under treatment; endogenous in cells
Sequence (Q13133 1-447): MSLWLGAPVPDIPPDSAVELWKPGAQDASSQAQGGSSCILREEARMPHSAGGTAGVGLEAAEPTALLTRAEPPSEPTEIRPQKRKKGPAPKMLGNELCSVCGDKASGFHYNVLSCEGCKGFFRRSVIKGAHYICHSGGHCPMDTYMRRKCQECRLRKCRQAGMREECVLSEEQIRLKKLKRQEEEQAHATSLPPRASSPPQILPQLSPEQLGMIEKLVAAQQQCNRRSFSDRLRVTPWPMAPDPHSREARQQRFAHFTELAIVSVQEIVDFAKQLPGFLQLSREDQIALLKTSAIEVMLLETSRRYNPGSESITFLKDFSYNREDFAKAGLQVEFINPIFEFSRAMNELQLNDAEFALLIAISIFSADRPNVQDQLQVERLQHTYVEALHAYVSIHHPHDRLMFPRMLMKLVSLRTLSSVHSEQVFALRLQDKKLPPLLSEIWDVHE
Experiment: LXRα-specific LXRE-GFP reporter assay in Hep3B cells (NR1H2 knockout)
Details: 48h of treatment, GFP by FACS
Under this convention, label 1 denotes EC50 strictly below 100 nM and label 0 denotes EC50 at or above 100 nM.

O=C(O)Cc1cccc(OCCCN(Cc2cccc(C(F)(F)F)c2Cl)CC(c2ccccc2)c2ccccc2)c1 [GW3965 (2), reference compound] | label 0

Qu. Given NC1CCN(c2ccc(NC3=C(c4ccccc4)C(=O)N(Cc4ccccc4)C3=O)cc2)CC1 [Compound 46] , is recorded EC50 strictly lower than 100 nM?
Ans. label 0

Qu. Given CC(C)(C)N1C(=O)C(Nc2ccc(N3CCCCC3)cc2)=C(c2ccccc2)C1=O [Compound 51] , is recorded EC50 strictly lower than 100 nM?
Ans. label 1

Qu. Given O=C1C(Nc2ccc(N3CCCCC3)cc2)=C(c2ccccc2)C(=O)N1Cc1ccccc1 [Compound 40] , is recorded EC50 strictly lower than 100 nM?
Ans. label 1

----------
Target: LXRα LBD (GST) (Homo sapiens, UniProt Q13133)
Construct: 5 nM LXRα LBD (GST); 10 nM LXRβ LBD (GST); purchased ThermoFisher Scientific PV4655
Sequence (Q13133 209-447 limits assumed): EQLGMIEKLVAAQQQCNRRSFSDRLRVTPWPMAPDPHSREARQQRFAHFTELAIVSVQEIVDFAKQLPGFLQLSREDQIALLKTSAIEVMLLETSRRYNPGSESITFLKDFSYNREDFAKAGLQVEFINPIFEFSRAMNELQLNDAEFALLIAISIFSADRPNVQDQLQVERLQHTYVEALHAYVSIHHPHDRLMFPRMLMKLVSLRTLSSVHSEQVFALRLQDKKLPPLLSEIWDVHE
Experiment: Time-resolved LXR FRET assay (LanthaScreen TR-FRET LXRα Coactivator Assay Kit)
Assay type: biochemical
Settings: 5 nM LXRα LBD (GST), read after 6 h; R^2 of fit given; read-out: TR-FRET activity (EC50) LXRα
property_name: EC50 (nM)
Expressed in nM, but write only the number.

O=C1C(Nc2ccc(Cl)cc2)=C(c2ccccc2)C(=O)N1Cc1ccccc1 [Compound 30] | 1150

Qu. Param item = O=C1C(Nc2ccc(N3CCCCC3)cc2)=C(c2ccccc2)C(=O)N1Cc1ccccc1 [Compound 40] ; retrieve measured EC50.
Ans. 42

Qu. Param item = COc1ccc(NC2=C(c3ccccc3)C(=O)N(CC3CC3)C2=O)cc1 [Compound 23] ; retrieve measured EC50.
Ans. 342

Qu. Param item = O=C(O)Cc1cccc(OCCCN(Cc2cccc(C(F)(F)F)c2Cl)CC(c2ccccc2)c2ccccc2)c1 [GW3965 (2), reference compound] ; retrieve measured EC50.
Ans. 87

FYI, the data here is from paper PMC11997999.
